inhibition at 300 µM reference
method-notes: Cytotoxicity against human HepG2 cells assessed as reduction in cell viability at 300 uM after 72 hrs by MTT assay
Type: functional
experimental-parameters: HepG2, 72 h

compound | inhibition at 300 µM (%)
Cc1c(C)c2c(c(C)c1OC(=O)CCC(=O)O)CCC(C)(C(=O)NC1CC(C)(C)N([O])C(C)(C)C1)O2 (stereo not drawn) | 44
Cc1c(C)c2c(c(C)c1OC(=O)CCC(=O)NC1CC(C)(C)N([O])C1(C)C)CC[C@@](C)(CCC[C@H](C)CCC[C@H](C)CCCC(C)C)O2 (stereo partly drawn) | 38
CC1(C)CC(NC(=O)CCC(=O)O)CC(C)(C)N1[O] | 0
Cc1c(C)c2c(c(C)c1OC(=O)CCC(=O)NC1CC(C)(C)N([O])C(C)(C)C1)CC[C@@](C)(CCC[C@H](C)CCC[C@H](C)CCCC(C)C)O2 | 5
Cc1c(C)c2c(c(C)c1O)CCC(C)(C(=O)NCC1CC(C)(C)N([O])C1(C)C)O2 (stereo not drawn) | 38
CC1(C)CC(CNC(=O)CCC(=O)O)C(C)(C)N1[O] (stereo not drawn) | 0
CC1(C)CC(NC(=O)CCC(=O)O)C(C)(C)N1[O] (stereo not drawn) | 0
Cc1c(C)c2c(c(C)c1OC(=O)CCC(=O)NCC1CC(C)(C)N([O])C1(C)C)CC[C@@](C)(CCC[C@H](C)CCC[C@H](C)CCCC(C)C)O2 (stereo partly drawn) | 10

----------
Listing: Activity of selected compounds
Tested on: Salmonella typhimurium
method-notes: Genotoxicity in Salmonella typhimurium TA102 harboring […] mutant assessed as frequency of reversion from histidine auxotrophy to prototrophy at 30 mM after 48 hrs by Ames test (reference value: 209 +/- 10 No _unit)
Assay type: toxicity, organism-based
experimental-parameters: salmonella enterica subsp. enterica serovar typhimurium, 30000 µM

compound | Activity
Cc1c(C)c2c(c(C)c1O)CCC(C)(C(=O)O)O2 (stereo not drawn) [TROLOX] | 230
Cc1c(C)c2c(c(C)c1O)CC[C@@](C)(CCC[C@H](C)CCC[C@H](C)CCCC(C)C)O2 [ALPHA-TOCOPHEROL] | 217
CC1(C)CC(NC(=O)CCC(=O)O)CC(C)(C)N1[O] | 211
Cc1c(C)c2c(c(C)c1OC(=O)CCC(=O)O)CCC(C)(C(=O)NC1CC(C)(C)N([O])C(C)(C)C1)O2 (stereo not drawn) | 216
Cc1c(C)c2c(c(C)c1OC(=O)CCC(=O)NCC1CC(C)(C)N([O])C1(C)C)CCC(C)(C(=O)NCC1CC(C)(C)N([O])C1(C)C)O2 (stereo not drawn) | 209
Cc1c(C)c2c(c(C)c1O)CCC(C)(C(=O)NC1CC(C)(C)N([O])C1(C)C)O2 (stereo not drawn) | 221
Cc1c(C)c2c(c(C)c1OC(=O)CCC(=O)NC1CC(C)(C)N([O])C(C)(C)C1)CC[C@@](C)(CCC[C@H](C)CCC[C@H](C)CCCC(C)C)O2 | 222
Cc1c(C)c2c(c(C)c1OC(=O)CCC(=O)O)CCC(C)(C(=O)NC1CC(C)(C)N([O])C1(C)C)O2 (stereo not drawn) | 221

----------
method-notes: Cytotoxicity against human HepG2 cells assessed as reduction in cell viability at 300 uM after 72 hrs by MTT assay
Format: functional
experimental-parameters: HepG2, 72 h
inhibition at 300 µM vs 20%: at or above is t, below is f.

compound | category
Cc1c(C)c2c(c(C)c1O)CCC(C)(C(=O)O)O2 (stereo not given) | f
Cc1c(C)c2c(c(C)c1O)CC[C@@](C)(CCC[C@H](C)CCC[C@H](C)CCCC(C)C)O2 | f
Cc1c(C)c2c(c(C)c1OC(=O)CCC(=O)O)CCC(C)(C(=O)NC1CC(C)(C)N([O])C1(C)C)O2 (stereo not given) | t
Cc1c(C)c2c(c(C)c1OC(=O)CCC(=O)O)CCC(C)(C(=O)NCC1CC(C)(C)N([O])C1(C)C)O2 (stereo not given) | f
Cc1c(C)c2c(c(C)c1OC(=O)CCC(=O)NC1CC(C)(C)N([O])C1(C)C)CCC(C)(C(=O)NC1CC(C)(C)N([O])C1(C)C)O2 (stereo not given) | f
